Taken from patent EP4635969A1.

Hi there, I'd appreciate the recorded EC50 for every entry that follows.
- target.of.assay: glucocorticoid receptor (GR) (Homo sapiens)
- Sequence (P04150 521-777): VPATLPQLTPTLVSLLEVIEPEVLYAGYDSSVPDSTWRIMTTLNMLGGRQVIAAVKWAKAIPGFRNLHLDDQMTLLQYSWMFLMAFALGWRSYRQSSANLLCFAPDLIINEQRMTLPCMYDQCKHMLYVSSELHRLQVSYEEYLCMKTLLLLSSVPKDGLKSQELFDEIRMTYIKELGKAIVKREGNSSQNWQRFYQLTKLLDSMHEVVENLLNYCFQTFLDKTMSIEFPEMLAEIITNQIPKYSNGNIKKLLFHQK
- assay.details: Assay for agonist activity on glucocorticoid receptor (luciferase reporter, HEK293 cells transfected with pBIND-GR plasmid)
- Format: cell-based
- protocol.conditions: HEK293 cells transfected with pBIND-GR, luciferase signal; read-out: GR agonist EC50
Answer format reminder: number followed by unit.

Here's what some known entries look like.
molecule	measure	recorded.measurement
C[C@]12C=CC(=O)C=C1[C@@H](F)C[C@H]1[C@@H]3C[C@H]4OC(c5ccc(OCC6CCOC6=O)cc5)O[C@@]4(C(=O)CO)[C@@]3(C)C[C@H](O)[C@@]12F (stereo partly drawn) [Compound 13]	EC50	3.43 nM
C[C@]12C=CC(=O)C=C1CC[C@H]1[C@@H]3C[C@H]4OC(c5ccc(OC6CCOC6=O)cc5)O[C@@]4(C(=O)CO)[C@@]3(C)C[C@H](O)[C@@]12F (stereo partly drawn) [Compound 40]	EC50	30.7 nM

Reported EC50 of C[C@]12C=CC(=O)C=C1CC[C@@H]1[C@@H]2[C@@H](O)C[C@@]2(C)[C@H]1C[C@H]1OC(c3ccc(CSC4COC(=O)C4)cc3C#N)O[C@]12C(=O)CO (stereo partly drawn) [Compound 32] : 3.67 nM
